Hello, the source for this data is patent US20180171001A1, in case you need it.

neutralization IC50 by entry:
assay.system: Env of HIV-1 strain R1166.c1 (HIV-1)
method.description: cell-based or functional assay
property.label: neutralization IC50

>>> reading("γ3κ5 (antibody, V domains shown) VH: QIHLVQSGTEVKKPGSSVTVSCKAYGVNTFGLYAVSWVRQAPGQRLEYIGQIRRWKSSASHHFRGRVTVSAVDPTGSSPPISSLEIRDLTTDDTAVYFCTTTSTSDYWSGLHNERGTAFSSWGQGTLISVSA VL: DIQMTQSPSTLSASTGDTVRISCRASQSITGNWVAWYQQRPGKAPRLLIYRGAALLGGVPSRFRGSAAGTDFTLTIGNLQAEDFGTFYCQQYDTYPGTFGQGTKVEVKR")
"2.07 µg/mL"
>>> reading("8ANC3630 (antibody, V domains shown) VH: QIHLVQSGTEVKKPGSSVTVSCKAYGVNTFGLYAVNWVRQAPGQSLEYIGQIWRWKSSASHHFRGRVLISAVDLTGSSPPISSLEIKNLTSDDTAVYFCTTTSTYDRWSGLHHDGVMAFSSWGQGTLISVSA VL: DIQMTQSPSTLSASIGDTVRISCRASQSITGGWLAWYHQRPGKAPRLLIYRGSRLLGGVPSRFSGSAAGTDFTLTIANLQAEDFGTFYCQQYDTYPGTFGQGTKVEVKR")
"1.45 µg/mL"
>>> reading("γ46κ11 (antibody, V domains shown) VH: QIHLVQSGTEVKKPGSSVTVSCKAYGVNTFGLYAVNWVRQAPGQGLEYIGQIWRWKSSASHHFRGRVLISAVDLTGSSPPISSLEIKNVTSDDTAVYFCTTTSTYDKWSGLHHDGVVAFSSWGQGTLISVSA VL: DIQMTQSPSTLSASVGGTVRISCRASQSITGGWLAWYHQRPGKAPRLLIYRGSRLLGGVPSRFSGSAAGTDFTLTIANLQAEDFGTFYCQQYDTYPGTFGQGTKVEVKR")
"3.39 µg/mL"
>>> reading("γ59κ3 (antibody, V domains shown) VH: QIHLVQSGTEVKKPGSSVTVSCKAYGVNTFGLYAVNWVRQAPGQGLEYIGQIWRWKSSASHHFRGRVLISAVDLTGSSPPISSLEIKNVTSDDTAVYFCTTTSTYDEWSDLHHDGVMAFSSWGQGTLISVSA VL: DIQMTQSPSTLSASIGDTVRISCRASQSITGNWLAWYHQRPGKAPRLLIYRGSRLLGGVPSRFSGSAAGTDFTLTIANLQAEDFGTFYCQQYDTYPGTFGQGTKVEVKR")
"24.2 µg/mL"
